Target: T1, Activin A (UniProt P08476)
T1 sequence (looked up): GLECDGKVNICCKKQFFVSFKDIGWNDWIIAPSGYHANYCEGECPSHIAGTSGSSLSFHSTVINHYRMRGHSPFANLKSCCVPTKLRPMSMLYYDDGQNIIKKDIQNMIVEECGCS
Assay: cell-based or functional assay
Would you kindly list IC50 (ng/mL), conditioned media for each of these binders?
Could you give me the number in ng/mL? Just the number is fine.

Annotate the binder ActRIIB(20-131)-hFc (Fc fusion, not shown: a dimerising Fc or GST) GRGEAETRECIYYNANWELERTNQSGLERCEGEQDKRLHCYASWRNSSGTIELVKKGCWLDDFNCYDRQECVATEENPQVYFCCCEGNFCNERFTHLPEAGGPEVTYEPPPT with its measured IC50 (ng/mL), conditioned media.
201

Annotate the binder ActRIIB(24-131)-hFc (Fc fusion, not shown: a dimerising Fc or GST) AETRECIYYNANWELERTNQSGLERCEGEQDKRLHCYASWRNSSGTIELVKKGCWLDDFNCYDRQECVATEENPQVYFCCCEGNFCNERFTHLPEAGGPEVTYEPPPT with its measured IC50 (ng/mL), conditioned media.
105

Annotate the binder ActRIIB(21-131)-hFc (Fc fusion, not shown: a dimerising Fc or GST) RGEAETRECIYYNANWELERTNQSGLERCEGEQDKRLHCYASWRNSSGTIELVKKGCWLDDFNCYDRQECVATEENPQVYFCCCEGNFCNERFTHLPEAGGPEVTYEPPPT with its measured IC50 (ng/mL), conditioned media.
325

Annotate the binder ActRIIB(23-131)-hFc (Fc fusion, not shown: a dimerising Fc or GST) EAETRECIYYNANWELERTNQSGLERCEGEQDKRLHCYASWRNSSGTIELVKKGCWLDDFNCYDRQECVATEENPQVYFCCCEGNFCNERFTHLPEAGGPEVTYEPPPT with its measured IC50 (ng/mL), conditioned media.
43

Annotate the binder ActRIIB(22-131)-hFc (Fc fusion, not shown: a dimerising Fc or GST) GEAETRECIYYNANWELERTNQSGLERCEGEQDKRLHCYASWRNSSGTIELVKKGCWLDDFNCYDRQECVATEENPQVYFCCCEGNFCNERFTHLPEAGGPEVTYEPPPT with its measured IC50 (ng/mL), conditioned media.
100
